Reported Ki values for a set of compounds
biological target: PCSK9 (Homo sapiens, UniProt Q8NBP7); construct: biotin (biotinylated); purchased; experiment: PCSK9 Alexa FRET Ultra TR-FRET assay; assay type: binding; conditions: Ki Ultra, calculated from IC50 and KD of AF cyclic peptide; 0.5 nM PCSK9, 960 nM AF cyclic peptide; read-out: Alexa FRET Ultra TR-FRET
Sequence (Q8NBP7 153-692): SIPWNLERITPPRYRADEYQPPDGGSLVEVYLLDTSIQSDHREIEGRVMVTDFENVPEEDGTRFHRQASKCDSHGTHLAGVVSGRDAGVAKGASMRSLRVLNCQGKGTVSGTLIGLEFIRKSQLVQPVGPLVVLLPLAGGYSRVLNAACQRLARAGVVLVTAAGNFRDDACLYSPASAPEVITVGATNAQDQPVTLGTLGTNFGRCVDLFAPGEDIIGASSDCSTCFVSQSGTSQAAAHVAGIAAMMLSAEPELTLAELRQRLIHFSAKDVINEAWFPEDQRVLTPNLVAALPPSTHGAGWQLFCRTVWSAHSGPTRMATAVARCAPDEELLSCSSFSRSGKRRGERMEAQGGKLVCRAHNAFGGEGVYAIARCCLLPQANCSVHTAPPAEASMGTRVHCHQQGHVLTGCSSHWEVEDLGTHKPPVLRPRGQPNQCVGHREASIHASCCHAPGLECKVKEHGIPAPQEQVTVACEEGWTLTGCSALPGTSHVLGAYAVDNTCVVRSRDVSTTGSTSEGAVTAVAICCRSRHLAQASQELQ
The reply should contain only the number, in nM.

COMPOUND	Ki [nM]
COc1ccc(C[C@@H]2NC(=O)[C@H]([C@@H](C)O)NC(=O)[C@@H]3[C@@H]4CCN3C(=O)[C@@H]3Cc5cn(c6ccc(F)cc56)CCCCCCN(Cc5ccc(cc5)CCNC(=O)[C@]5(C)CCCN5C2=O)C(=O)CCC(=O)N[C@@H](CNC(=O)CCOCCOCC[N+](C)(C)CCNC(=O)COCCOCCNC(=O)COCCOCCNC(=O)CC[C@@H](NC(=O)CC[C@@H](NC(=O)CCCCCCCCCCCCCCCCC(=O)O)C(=O)O)C(=O)O)C(=O)N[C@H](C)C(=O)N[C@@H](Cc2cccc(c2)CNC(=O)CO4)C(=O)N3)cc1 [Ex-59]	0.101

Turning now to a further compound:
Req: Which Ki is reported with PCSK9 (Homo sapiens, UniProt Q8NBP7) for this entry: CCCCCCCCCCCCCCCC(=O)NCC[N+](C)(C)CCOCCOCCC(=O)NCCOCCOCC(=O)NCCOCCOCC(=O)NC[C@H]1NC(=O)[C@H](C)NC(=O)CCC(=O)N2CCCCCCn3cc(c4cc(F)ccc43)C[C@@H]3NC(=O)[C@H](Cc4cccc(c4)CNC(=O)CO[C@H]4CCN(C3=O)[C@@H]4C(=O)N[C@@H]([C@@H](C)O)C(=O)N[C@@H](Cc3ccc(OC)cc3)C(=O)N3CCC[C@@]3(C)C(=O)NCCc3ccc(cc3)C2)NC1=O [Ex-38] ?
Resp: 0.012

###

target: PCSK9 (Homo sapiens); construct: biotin (biotinylated); purchased; assay: PCSK9 Alexa FRET Plus TR-FRET assay; format: binding; conditions: Ki calculated from IC50 and KD of AF cyclic peptide Reagent B; 0.5 nM PCSK9, 960 nM AF cyclic peptide; read-out: Alexa FRET Plus TR-FRET
REPORTED_PROPERTY: pKi
Keep in mind that pKi stands for -log10 of concentration in molar terms.

Req: Which pKi is reported with PCSK9 (Homo sapiens) for this entry: COc1ccc(C[C@@H]2NC(=O)[C@H]([C@@H](C)O)NC(=O)[C@@H]3[C@@H]4CCN3C(=O)[C@@H]3Cc5cn(c6ccc(F)cc56)CCCCCCN(Cc5ccc(cc5)CCNC(=O)[C@]5(C)CCCN5C2=O)C(=O)CCC(=O)N[C@@H](C)C(=O)N[C@H](CNC(=O)CCCCC[N+](C)(C)CCNC(=O)CCCCC[N+](C)(C)CCNC(=O)COCCOCCNC(=O)COCCOCCNC(=O)CC[C@H](NC(=O)CCCCCCCCCCCCCCCCC(=O)O)C(=O)O)C(=O)N[C@@H](Cc2cccc(c2)CNC(=O)CO4)C(=O)N3)cc1 ?
Resp: 11.22

###

Target: PCSK9 (Homo sapiens, UniProt Q8NBP7)
Construct: biotin (biotinylated); purchased
Assay: PCSK9 Alexa FRET Plus TR-FRET assay
Assay type: binding
Conditions: Ki calculated from IC50 and KD of AF cyclic peptide Reagent B; 0.5 nM PCSK9, 960 nM AF cyclic peptide; read-out: Alexa FRET Plus TR-FRET
Experimental: A separate solution containing 1920 nM of the AlexaFluor tagged cyclic peptide is made in the same buffer system. […] The reaction is incubated at room temperature for at least two hours prior to fluorescence measurements using an Envision Multilabel Reader. IC50 values are determined by fitting data to a sigmoidal dose-response curve using nonlinear regression. Ki is then calculated from the Ic50 and the KD of AF cyclic peptide. […]
pKi: −log10 of the molar value.
REPORTED_PROPERTY: pKi

Req: Endpoint output: pKi of COc1ccc(C[C@@H]2NC(=O)[C@H]([C@@H](C)O)NC(=O)[C@@H]3[C@@H]4CCN3C(=O)[C@@H]3Cc5cn(c6ccc(F)cc56)CCCCCCN(Cc5ccc(cc5)CCNC(=O)[C@]5(C)CCCN5C2=O)C(=O)CCC(=O)N[C@@H](C)C(=O)N[C@H](CNC(=O)CCOCCOCC[N+](C)(C)CCNC(=O)Cc2c(C)n(C(=O)c5ccc(Cl)cc5)c5ccc(OC)cc25)C(=O)N[C@@H](Cc2cccc(c2)CNC(=O)CO4)C(=O)N3)cc1 [Ex-52] . Value?
Resp: > 11.22

Req: Let us now turn to COc1ccc(C[C@@H]2NC(=O)[C@H]([C@@H](C)O)NC(=O)[C@@H]3[C@@H]4CCN3C(=O)[C@@H]3Cc5cn(c6ccc(F)cc56)CCCCCCN(Cc5ccc(cc5)CCNC(=O)[C@]5(C)CCCN5C2=O)C(=O)CCC(=O)N[C@@H](C)C(=O)N[C@H](CNC(=O)CCOCCOCC[N+](C)(C)CCNC(=O)COCCOCCNC(=O)COCCOCCNC(=O)CC[C@H](NC(=O)CC[C@H](NC(=O)CCCCCCCCCCCCCCC(=O)O)C(=O)O)C(=O)O)C(=O)N[C@@H](Cc2cccc(c2)CNC(=O)CO4)C(=O)N3)cc1 [Ex-34]
Resp: > 11.22

Req: Let us now turn to COc1ccc(C[C@@H]2NC(=O)[C@H]([C@@H](C)O)NC(=O)C3C4CCN3C(=O)[C@@H]3Cc5cn(c6ccc(F)cc56)CCCCCCN(Cc5ccc(cc5)CCNC(=O)[C@]5(C)CCCN5C2=O)C(=O)CCC(=O)N[C@@H](C)C(=O)N[C@H](CNC(=O)CCOCCOCC[N+](C)(C)CCNC(=O)CCOCCOCC[N+](C)(C)CCNC(=O)COCCOCCNC(=O)COCCOCCNC(=O)CCCCCCCCCCCCCCC(=O)O)C(=O)N[C@@H](Cc2cccc(c2)CNC(=O)CO4)C(=O)N3)cc1 [compound 43]
Resp: > 11.22

###

biological target: PCSK9 (Homo sapiens, UniProt Q8NBP7); construct: biotin (biotinylated); purchased; assay: PCSK9 Alexa FRET Plus TR-FRET assay; format: binding
Reported pKi values for a set of molecules
Keep in mind that pKi stands for -log10 of concentration in molar terms.

GIVEN_SMILES	ASSAYED_TARGET	pKi
COc1ccc(C[C@@H]2NC(=O)[C@H]([C@@H](C)O)NC(=O)[C@@H]3[C@@H]4CCN3C(=O)[C@@H]3Cc5cn(c6ccc(F)cc56)CCCCCCN(Cc5ccc(cc5)CCNC(=O)[C@]5(C)CCCN5C2=O)C(=O)CCC(=O)N[C@@H](C)C(=O)N[C@H](CNC(=O)CCCCC[N+](C)(C)CCNC(=O)COCCOCCNC(=O)COCCOCCNC(=O)CC[C@H](NC(=O)CCCCCCCCCCCCCCCCC(=O)O)C(=O)O)C(=O)N[C@@H](Cc2cccc(c2)CNC(=O)CO4)C(=O)N3)cc1	PCSK9 (Homo sapiens, UniProt Q8NBP7)	10.85

Req: Which pKi is reported with PCSK9 (Homo sapiens, UniProt Q8NBP7) for this entry: COc1ccc(C[C@@H]2NC(=O)[C@H]([C@@H](C)O)NC(=O)[C@@H]3[C@@H]4CCN3C(=O)[C@@H]3Cc5cn(c6ccc(F)cc56)CCCCCCN(Cc5ccc(cc5)CCNC(=O)[C@]5(C)CCCN5C2=O)C(=O)CCC(=O)N[C@@H](C)C(=O)N[C@H](CNC(=O)COCCOCCNC(=O)CC[C@H](NC(=O)CCOCCOCC[N+](C)(C)CCNC(=O)COCCOCCNC(=O)COCCOCCNC(=O)CC[C@H](NC(=O)CCCCCCCCCCCCCCCCC(=O)O)C(=O)O)C(=O)O)C(=O)N[C@@H](Cc2cccc(c2)CNC(=O)CO4)C(=O)N3)cc1 ?
Resp: 11.00

Req: Let us now turn to COc1ccc(C[C@@H]2NC(=O)[C@H]([C@@H](C)O)NC(=O)[C@@H]3[C@@H]4CCN3C(=O)[C@@H]3Cc5cn(c6ccc(F)cc56)CCCCCCN(Cc5ccc(cc5)CCNC(=O)[C@]5(C)CCCN5C2=O)C(=O)CCC(=O)N[C@@H](C)C(=O)N[C@H](CNC(=O)COCCOCCNC(=O)CCCCC[N+](C)(C)CCNC(=O)COCCOCCNC(=O)COCCOCCNC(=O)CC[C@H](NC(=O)CCCCCCCCCCCCCCCCC(=O)O)C(=O)O)C(=O)N[C@@H](Cc2cccc(c2)CNC(=O)CO4)C(=O)N3)cc1
Resp: 11.05

###

target: PCSK9 (Homo sapiens); construct: biotin (biotinylated); purchased; assay: PCSK9 Alexa FRET Ultra TR-FRET assay; format: binding; conditions: Ki Ultra, calculated from IC50 and KD of AF cyclic peptide; 0.5 nM PCSK9, 960 nM AF cyclic peptide; read-out: Alexa FRET Ultra TR-FRET
REPORTED_PROPERTY: pKi
Keep in mind that pKi stands for -log10 of concentration in molar terms.

Completed entries (count: 2):
COMPOUND	NUMBER
COc1ccc(C[C@@H]2NC(=O)[C@H]([C@@H](C)O)NC(=O)[C@@H]3[C@@H]4CCN3C(=O)[C@@H]3Cc5cn(c6ccc(F)cc56)C/C=C/CCCN(Cc5ccc(cc5)CCNC(=O)[C@]5(C)CCCN5C2=O)C(=O)CCC(=O)N[C@@H](C)C(=O)N[C@H](CNC(=O)CCOCCOCC[N+](C)(C)CCNC(=O)COCCOCCNC(=O)COCCOCCNC(=O)CC[C@H](NC(=O)CC[C@H](NC(=O)CCCCCCCCCCCCCCCCC(=O)O)C(=O)O)C(=O)O)C(=O)N[C@@H](Cc2cccc(c2)CNC(=O)CO4)C(=O)N3)cc1 [Ex-44]	11.52
COc1ccc(C[C@@H]2NC(=O)[C@H]([C@@H](C)O)NC(=O)[C@@H]3[C@@H]4CCN3C(=O)[C@@H]3Cc5cn(c6ccc(F)cc56)CCCCCCN(Cc5ccc(cc5)CCNC(=O)[C@]5(C)CCCN5C2=O)C(=O)CCC(=O)N[C@@H](C)C(=O)N[C@H](CNC(=O)CCOCCOCC[N+](C)(C)CCNC(=O)CCCCCCCCCCCCCCCCC(=O)O)C(=O)N[C@@H](Cc2cccc(c2)CNC(=O)CO4)C(=O)N3)cc1 [Ex-23]	11.15

Turning now to a further compound:
Req: Endpoint output: pKi of COc1ccc(C[C@@H]2NC(=O)[C@H]([C@@H](C)O)NC(=O)[C@@H]3[C@@H]4CCN3C(=O)[C@@H]3Cc5cn(c6ccc(F)cc56)CCCCCCN(Cc5ccc(cc5)CCNC(=O)[C@]5(C)CCCN5C2=O)C(=O)CCC(=O)N[C@@H](C)C(=O)N[C@H](CNC(=O)COCCOCCNC(=O)COCCOCCNC(=O)CCOCCOCC[N+](C)(C)CCNC(=O)COCCOCCNC(=O)COCCOCCNC(=O)CC[C@H](NC(=O)CCCCCCCCCCCCCCCCC(=O)O)C(=O)O)C(=O)N[C@@H](Cc2cccc(c2)CNC(=O)CO4)C(=O)N3)cc1 [Ex-29] . Value?
Resp: 10.89
